Quick reference for GLUCOSE among some compounds
Species on record: Rattus norvegicus
Assay: DrugMatrix - Regimen: Daily Repeat
Assay type: toxicity, organism-based, Sprague-Dawley
Parameters: regimen Daily Repeat, gender Male, age 6-8 weeks
Details: in vivo, po, 0 mg/kg, 120 h, tissue Plasma, route oral GAVAGE, dose level Control, time 5 day, vehicle 100 % WATER

| compound | GLUCOSE (mg/dL) |
| --- | --- |
| CC(C)(C)NC[C@H](O)COc1nsnc1N1CCOCC1 [TIMOLOL] | 135.67 |
| O=C(O)c1cccnc1 [NIACIN] | 156.5 |
| Nc1ccc(S(=O)(=O)Nc2ncccn2)cc1 [SULFADIAZINE] | 180.67 |
| CN1C2CCCC1CC(NC(=O)c1nn(C)c3ccccc13)C2 (stereo not given) [GRANISETRON] | 135.67 |
| Cc1c(N(C)CS(=O)(=O)[O-])c(=O)n(-c2ccccc2)n1C.[Na+] [DIPYRONE SODIUM] | 173.5 |
| CCCc1nn(C)c2c(=O)[nH]c(-c3cc(S(=O)(=O)N4CCN(C)CC4)ccc3OCC)nc12 | 153.67 |
| CCCCCCCCCCCCCCCC[n+]1ccccc1.[Br-] | 152.5 |
| CCOC(N)=O | 145.67 |
| CNS(=O)(=O)Cc1ccc2[nH]cc(CCN(C)C)c2c1 | 139.33 |
| O=P1(N(CCCl)CCCl)NCCCO1 (stereo not given) [CYCLOPHOSPHAMIDE ANHYDROUS] | 137 |

====

Species: Rattus norvegicus
Assay: DrugMatrix - Regimen: Daily Repeat
Type: toxicity, organism-based, Sprague-Dawley
Parameters: regimen Daily Repeat, gender Male, age 6-8 weeks
Details: in vivo, po, 0 mg/kg, 120 h, tissue Plasma, route oral GAVAGE, dose level Control, time 5 day, vehicle 100 % SALINE

| compound | ASPARTATE AMINOTRANSFERASE [u/L] |
| --- | --- |
| CC(=O)OCC(CCn1cnc2cnc(N)nc21)COC(C)=O | 83.5 |
| Cc1cc(CC(=O)O)n(C)c1C(=O)c1ccc(Cl)cc1 [ZOMEPIRAC] | 89.17 |
| Oc1ccccc1O | 89.17 |
| CCCc1nn(C)c2c(=O)[nH]c(-c3cc(S(=O)(=O)N4CCN(C)CC4)ccc3OCC)nc12 | 83.5 |

====

Species on record: Rattus norvegicus
Assay: DrugMatrix - Regimen: Daily Repeat
Assay type: toxicity, organism-based, Sprague-Dawley
Set-up: regimen Daily Repeat, gender Male, age 6-8 weeks
Details: in vivo, po, 0 mg/kg, 72 h, tissue Blood, route oral GAVAGE, dose level Control, time 3 day, vehicle 100 % WATER

| compound | unit-annotation | ABSOLUTE SEGMENTED NEUTROPHIL |
| --- | --- | --- |
| CN1C2CCCC1CC(NC(=O)c1nn(C)c3ccccc13)C2 (centres undefined) [GRANISETRON] | CELLS/uL | 887 |
| CC(C)(C)NC[C@H](O)COc1nsnc1N1CCOCC1 [TIMOLOL] | CELLS/uL | 887 |
| CNS(=O)(=O)Cc1ccc2[nH]cc(CCN(C)C)c2c1 | CELLS/uL | 1090.17 |
| Nc1ccc(S(=O)(=O)Nc2nccs2)cc1 [SULFATHIAZOLE] | CELLS/uL | 887 |
| CC[C@H]1OC(=O)[C@H](C)[C@@H](O[C@H]2C[C@@](C)(OC)[C@@H](O)[C@H](C)O2)[C@H](C)[C@@H](O[C@@H]2O[C@H](C)C[C@H](N(C)C)[C@H]2O)[C@](C)(OC)C[C@@H](C)C(=O)[C@H](C)[C@@H](O)[C@]1(C)O [CLARITHROMYCIN] | CELLS/uL | 818.67 |
| CCCc1nn(C)c2c(=O)[nH]c(-c3cc(S(=O)(=O)N4CCN(C)CC4)ccc3OCC)nc12 | CELLS/uL | 617.67 |
| CCOC(N)=O | CELLS/uL | 1149.5 |
| OCCO [ETHYLENE GLYCOL] | CELLS/uL | 617.67 |
| Cc1c(N(C)CS(=O)(=O)[O-])c(=O)n(-c2ccccc2)n1C.[Na+] [DIPYRONE SODIUM] | CELLS/uL | 1461.67 |

The reported measurements were obtained from ChEMBL document CHEMBL3885881.
